viability at 72 h, 100 µM for assorted compounds
experiment: In vitro cytotoxicity, Calcein AM, 72 h; type: cell-based, human; conditions: human, G 361 cells (human malignant melanoma); at 100 μM, 72 h; read-out: % of viable cells G361
Give the quantity in %, number only.

[[record]]
compound = "Nc1n[nH]c(N)c1N=Nc1ccccc1[N+](=O)[O-]"
measured_result = 58

[[record]]
compound = "Nc1n[nH]c(N)c1N=Nc1ccc(O)cc1 [Compound 12b]"
measured_result = 8.3

[[record]]
compound = "Nc1n[nH]c(N)c1/N=N/c1ccccc1O [Compound 10b]"
measured_result = 74

[[record]]
compound = "Nc1n[nH]c(N)c1/N=N/c1cccc([N+](=O)[O-])c1"
measured_result = 69

[[record]]
compound = "Nc1n[nH]c(N)c1N=Nc1ccccc1CO [Compound 16b]"
measured_result = 84

[[record]]
compound = "Nc1n[nH]c(N)c1/N=N/c1ccc([N+](=O)[O-])cc1"
measured_result = 61


Documented viability at 72 h, 100 µM of Nc1n[nH]c(N)c1/N=N/c1cccc(O)c1 [Compound 11b] : 70

====

tested on: MCF7 (human breast adenocarcinoma); experiment: In vitro cytotoxicity, Calcein AM, 72 h; type: cell-based; conditions: Homo sapiens, MCF7; 72 h, Calcein AM; triplicates; read-out: IC50 (μM) MCF7
IC50 for assorted molecules

Recorded IC50, per entry:
[[record]]
molecule = "Nc1n[nH]c(N)c1/N=N/c1cccc([N+](=O)[O-])c1"
parameter_measured = "IC50"
measured_result = "65 µM"

[[record]]
molecule = "Nc1n[nH]c(N)c1/N=N/c1ccccc1O [Compound 10b]"
parameter_measured = "IC50"
measured_result = "> 100 µM"

[[record]]
molecule = "Nc1n[nH]c(N)c1/N=N/c1cccc(O)c1 [Compound 11b]"
parameter_measured = "IC50"
measured_result = "> 100 µM"

[[record]]
molecule = "Nc1n[nH]c(N)c1N=Nc1ccccc1[N+](=O)[O-]"
parameter_measured = "IC50"
measured_result = "> 100 µM"


Now, please, on to the next molecule.
Documented IC50 of Nc1n[nH]c(N)c1N=Nc1ccccc1CO [Compound 16b] : > 100 µM

====

system: HOS (human osteogenic sarcoma); test: In vitro cytotoxicity, Calcein AM, 72 h; type: cell-based; conditions: Homo sapiens, read-out: IC50 (μM) HOS
parameter-measured: IC50

Documented IC50 of Nc1n[nH]c(N)c1/N=N/c1ccc([N+](=O)[O-])cc1 [Compound 9b] : > 100 µM

====

biological target: CDK1/cyclin B (Homo sapiens, UniProt P06493); construct: made in house; host or cells: Sf9 insect cells (baculovirus co-infection); assay: CDK1/cyclin B kinase inhibition assay (histone H1, [γ-33P]ATP); format: biochemical; settings: averaged from triplicates; 15 μM ATP
Sequence (P06493 whole entry): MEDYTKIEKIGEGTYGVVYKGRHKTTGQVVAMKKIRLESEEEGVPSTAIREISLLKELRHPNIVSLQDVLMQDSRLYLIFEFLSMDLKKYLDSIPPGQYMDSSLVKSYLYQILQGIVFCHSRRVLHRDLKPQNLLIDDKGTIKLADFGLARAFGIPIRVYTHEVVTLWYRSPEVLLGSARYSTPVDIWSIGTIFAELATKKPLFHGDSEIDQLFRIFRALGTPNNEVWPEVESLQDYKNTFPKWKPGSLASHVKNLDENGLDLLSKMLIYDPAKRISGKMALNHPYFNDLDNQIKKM
Sequence (P14635 whole entry partner): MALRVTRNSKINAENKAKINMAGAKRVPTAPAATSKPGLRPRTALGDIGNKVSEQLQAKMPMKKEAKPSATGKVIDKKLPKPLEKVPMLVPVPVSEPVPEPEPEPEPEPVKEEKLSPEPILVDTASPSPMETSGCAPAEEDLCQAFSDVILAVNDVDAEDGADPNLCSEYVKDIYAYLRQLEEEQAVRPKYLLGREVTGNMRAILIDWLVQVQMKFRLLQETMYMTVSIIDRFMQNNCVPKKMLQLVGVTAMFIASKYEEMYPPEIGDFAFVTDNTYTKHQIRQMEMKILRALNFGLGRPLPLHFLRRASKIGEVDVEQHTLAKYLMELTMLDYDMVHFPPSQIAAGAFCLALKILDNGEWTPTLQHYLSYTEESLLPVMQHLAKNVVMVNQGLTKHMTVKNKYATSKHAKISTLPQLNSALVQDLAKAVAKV
parameter-measured: IC50 (µM)
Give the quantity in µM, number only.

Recorded IC50, per entry:
[[record]]
compound = "Nc1n[nH]c(N)c1N=Nc1ccc(O)cc1 [Compound 12b]"
measured_result = 2.1

[[record]]
compound = "Nc1n[nH]c(N)c1N=Nc1ccccc1CO [Compound 16b]"
measured_result = 21

[[record]]
compound = "Nc1n[nH]c(N)c1/N=N/c1ccc(F)cc1 [Compound 3b]"
measured_result = 25


Now, please, on to the next compound.
Documented IC50 of Nc1n[nH]c(N)c1/N=N/c1ccc(Cl)cc1 [Compound 4b] : 60

====

assay: In vitro cytotoxicity, Calcein AM, 72 h; type: cell-based, human; details: human, HOS cells (human osteogenic sarcoma), at 100 μM, read-out: % of viable cells HOS
Strictly below 80% in viability at 72 h, 100 µM: true (1). Otherwise: false (0).

Past entries and their recorded results:
[[record]]
compound = "Nc1n[nH]c(N)c1/N=N/c1ccccc1O [Compound 10b]"
label_value = "false (0)"

[[record]]
compound = "Nc1n[nH]c(N)c1/N=N/c1cccc(O)c1 [Compound 11b]"
label_value = "false (0)"

[[record]]
compound = "Nc1n[nH]c(N)c1N=Nc1ccccc1[N+](=O)[O-] [Compound 7b]"
label_value = "true (1)"

[[record]]
compound = "Nc1n[nH]c(N)c1N=Nc1ccccc1CO [Compound 16b]"
label_value = "false (0)"

[[record]]
compound = "Nc1n[nH]c(N)c1N=Nc1ccc(O)cc1 [Compound 12b]"
label_value = "true (1)"


Now consider a different compound.
Task item: Quick check: viability at 72 h, 100 µM of Nc1n[nH]c(N)c1/N=N/c1cccc([N+](=O)[O-])c1 [Compound 8b] under 80%?
Reply: false (0)

====

viability at 72 h, 100 µM for assorted molecules
test: In vitro cytotoxicity, Calcein AM, 72 h; format: cell-based, human; conditions: human, MCF7 cells (human breast adenocarcinoma); at 100 μM, 72 h; read-out: % of viable cells MCF7
Give the quantity in %, number only.

Recorded viability at 72 h, 100 µM, per entry:
[[record]]
molecule = "Nc1n[nH]c(N)c1N=Nc1ccccc1CO [Compound 16b]"
unit_abbrev = "%"
measured_result = 51

[[record]]
molecule = "Nc1n[nH]c(N)c1N=Nc1ccccc1[N+](=O)[O-]"
unit_abbrev = "%"
measured_result = 62

[[record]]
molecule = "Nc1n[nH]c(N)c1/N=N/c1ccccc1O [Compound 10b]"
unit_abbrev = "%"
measured_result = 72


Now, please, on to the next molecule.
Documented viability at 72 h, 100 µM of Nc1n[nH]c(N)c1/N=N/c1cccc(O)c1 [Compound 11b] : 71

====

target: CDK2/cyclin E (Homo sapiens, UniProt P24941); construct: made in house; host or cells: Sf9 insect cells (baculovirus co-infection); experiment: CDK2/cyclin E kinase inhibition assay (histone H1, [γ-33P]ATP); type: biochemical; conditions: averaged from triplicates; 15 μM ATP
IC50 for assorted molecules

[[record]]
molecule = "COc1cnc(NS(=O)(=O)c2ccc(N=Nc3c(N)n[nH]c3N)cc2)nc1 [Compound 22b]"
parameter_measured = "IC50"
measured_result = "> 100 µM"

[[record]]
molecule = "Nc1n[nH]c(N)c1N=Nc1cccc(C(=O)O)c1 [Compound 14b]"
parameter_measured = "IC50"
measured_result = "27 µM"

[[record]]
molecule = "COc1ccc(NS(=O)(=O)c2ccc(N=Nc3c(N)n[nH]c3N)cc2)nn1 [Compound 23b]"
parameter_measured = "IC50"
measured_result = "> 100 µM"


Documented IC50 of Nc1n[nH]c(N)c1/N=N/c1ccc(-c2nc3ccccc3[nH]c2=O)cc1 [Compound 24b] : > 100 µM

Documented IC50 of Nc1n[nH]c(N)c1/N=N/c1ccc(F)cc1 : 24 µM

Documented IC50 of Cc1cc(C)nc(NS(=O)(=O)c2ccc(N=Nc3c(N)n[nH]c3N)cc2)n1 [Compound 21b] : > 100 µM

Documented IC50 of Nc1n[nH]c(N)c1/N=N/c1cccc(C(=O)c2cccc(/N=N/c3c(N)n[nH]c3N)c2)c1 [Compound 33d] : > 100 µM

Documented IC50 of Nc1n[nH]c(N)c1N=Nc1ccccc1[N+](=O)[O-] : 6.1 µM

Documented IC50 of Nc1n[nH]c(N)c1N=Nc1ccc(S(=O)(=O)Nc2nccs2)cc1 [Compound 20b] : > 100 µM

====

IC50 for assorted compounds
biological target: CDK2/cyclin E (Homo sapiens); construct: made in house; host or cells: Sf9 insect cells (baculovirus co-infection); test: CDK2/cyclin E kinase inhibition assay (histone H1, [γ-33P]ATP); format: biochemical; details: averaged from triplicates; 15 μM ATP

Recorded IC50, per entry:
[[record]]
compound = "Cc1c(/N=N/c2c(N)n[nH]c2N)c(=O)n(-c2ccccc2)n1C [Compound 31b]"
measured_result = "> 100 µM"

[[record]]
compound = "Nc1n[nH]c(N)c1/N=N/c1ccccc1-c1nc2ccccc2[nH]c1=O [Compound 25b]"
measured_result = "> 100 µM"


Documented IC50 of Nc1n[nH]c(N)c1N=Nc1ccccc1Cc1nc2ccccc2[nH]c1=O [Compound 26b] : 95 µM

Documented IC50 of NCc1ccc(/N=N/c2c(N)n[nH]c2N)cc1 [Compound 17b] : > 100 µM

Documented IC50 of Nc1n[nH]c(N)c1N=Nc1ccccc1CO [Compound 16b] : 17 µM

====

target: CDK1/cyclin B (Homo sapiens); construct: made in house; host or cells: Sf9 insect cells (baculovirus co-infection); assay: CDK1/cyclin B kinase inhibition assay (histone H1, [γ-33P]ATP); type: biochemical; conditions: averaged from triplicates; 15 μM ATP
parameter-measured: IC50

Recorded IC50, per entry:
[[record]]
molecule = "COc1cnc(NS(=O)(=O)c2ccc(N=Nc3c(N)n[nH]c3N)cc2)nc1 [Compound 22b]"
subject_of_test = "CDK1/cyclin B (Homo sapiens)"
measured_result = "> 100 µM"

[[record]]
molecule = "N=C(N)NS(=O)(=O)c1ccc(N=Nc2c(N)n[nH]c2N)cc1 [Compound 19b]"
subject_of_test = "CDK1/cyclin B (Homo sapiens)"
measured_result = "> 100 µM"

[[record]]
molecule = "Nc1n[nH]c(N)c1N=Nc1ccc(S(=O)(=O)Nc2nccs2)cc1 [Compound 20b]"
subject_of_test = "CDK1/cyclin B (Homo sapiens)"
measured_result = "> 100 µM"

[[record]]
molecule = "Nc1n[nH]c(N)c1/N=N/c1ccc(Br)cc1"
subject_of_test = "CDK1/cyclin B (Homo sapiens)"
measured_result = "> 100 µM"

[[record]]
molecule = "Nc1n[nH]c(N)c1/N=N/c1ccccc1O [Compound 10b]"
subject_of_test = "CDK1/cyclin B (Homo sapiens)"
measured_result = "3.6 µM"


Documented IC50 of Nc1n[nH]c(N)c1/N=N/c1cccc(C(=O)c2cccc(/N=N/c3c(N)n[nH]c3N)c2)c1 [Compound 33d] : > 100 µM

Documented IC50 of Nc1n[nH]c(N)c1N=Nc1ccccc1C(=O)O [Compound 13b] : 70 µM

Documented IC50 of Cc1cc(C)nc(NS(=O)(=O)c2ccc(N=Nc3c(N)n[nH]c3N)cc2)n1 [Compound 21b] : > 100 µM

Documented IC50 of Nc1n[nH]c(N)c1/N=N/c1ccc(C(=O)c2ccc(/N=N/c3c(N)n[nH]c3N)cc2)cc1 [Compound 32d] : > 100 µM

Documented IC50 of Nc1n[nH]c(N)c1N=Nc1ccccc1[N+](=O)[O-] : 2.6 µM

Documented IC50 of Nc1n[nH]c(N)c1/N=N/c1cccc([N+](=O)[O-])c1 : 4.8 µM
